- testTarget: bovine serum albumin (BSA) (Bos taurus, UniProt P02769)
- Sequence (P02769 25-607): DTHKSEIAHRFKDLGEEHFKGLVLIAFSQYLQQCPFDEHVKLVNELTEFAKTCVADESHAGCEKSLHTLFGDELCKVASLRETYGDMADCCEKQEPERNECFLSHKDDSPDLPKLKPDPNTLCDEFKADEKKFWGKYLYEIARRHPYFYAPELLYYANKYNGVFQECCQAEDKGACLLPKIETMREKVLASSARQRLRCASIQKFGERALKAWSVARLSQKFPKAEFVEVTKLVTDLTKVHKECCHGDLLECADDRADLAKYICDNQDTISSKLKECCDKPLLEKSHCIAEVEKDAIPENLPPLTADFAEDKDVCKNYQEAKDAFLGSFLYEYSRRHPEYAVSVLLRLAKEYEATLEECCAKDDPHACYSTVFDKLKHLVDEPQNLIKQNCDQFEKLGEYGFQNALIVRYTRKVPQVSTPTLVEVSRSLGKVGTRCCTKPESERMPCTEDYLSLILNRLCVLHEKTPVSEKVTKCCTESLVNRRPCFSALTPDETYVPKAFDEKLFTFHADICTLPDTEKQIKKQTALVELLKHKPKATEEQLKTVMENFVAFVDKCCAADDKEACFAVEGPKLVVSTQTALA
- measurementProtocol: Protein precipitation capacity (PPC), turbidimetric well-plate reader assay with BSA, log-normal dose–response model
- assayConditions: concentration giving 50% of maximal absorbance (420 nm haze); BSA 0.1 mM; SE in parentheses; read-out: ED50 (the source's name)
assayReadout: pEC50
The value called pEC50 is obtained by taking minus log10 of the concentration in mol/L.

Example molecules with recorded pEC50:
>>> measurednumber("Oc1ccc([C@H]2Oc3c(c(O)cc(O)c3C(c3ccco3)c3c(O)cc(O)c4c3O[C@H](c3ccc(O)c(O)c3)[C@H](O)C4)C[C@H]2O)cc1O [Compound 6, Epicatechin–furanmethine–epicatechin]")
2.74
>>> measurednumber("O=C(O)C(c1c(O)cc(O)c2c1O[C@H](c1ccc(O)c(O)c1)[C@H](O)C2)c1c(O)cc(O)c2c1O[C@H](c1ccc(O)c(O)c1)[C@H](O)C2 [Compound 4, Epicatechin–carboxymethine–epicatechin]")
2.69
>>> measurednumber("O=C(O)C(c1c(O)cc(O)c2c1O[C@H](c1ccc(O)c(O)c1)[C@@H](O)C2)c1c(O)cc(O)c2c1O[C@H](c1ccc(O)c(O)c1)[C@@H](O)C2")
2.69
>>> measurednumber("O=C(O[C@@H]1Cc2c(O)cc(O)cc2O[C@@H]1c1cc(O)c(O)c(O)c1)c1cc(O)c(O)c(O)c1 [Compound 14, Epigallocatechin-3-gallate, reference compound]")
3.05
>>> measurednumber("Oc1ccc([C@H]2Oc3c(c(O)cc(O)c3C(c3cc(O)c(O)c(O)c3)c3c(O)cc(O)c4c3O[C@H](c3ccc(O)c(O)c3)[C@H](O)C4)C[C@H]2O)cc1O")
2.84
>>> measurednumber("Oc1ccc([C@H]2Oc3c(Cc4c(O)cc(O)c5c4O[C@H](c4ccc(O)c(O)c4)[C@H](O)C5)c(O)cc(O)c3C[C@H]2O)cc1O [Compound 2, Epicatechin–methylene–epicatechin]")
2.66

Measured pEC50 of "Oc1ccc([C@H]2Oc3c(c(O)cc(O)c3C(c3ccco3)c3c(O)cc(O)c4c3O[C@H](c3ccc(O)c(O)c3)[C@@H](O)C4)C[C@@H]2O)cc1O" : 2.86

Measured pEC50 of Oc1cc(O)c2c(c1)O[C@H](c1ccc(O)c(O)c1)[C@H](O)[C@H]2c1c(O)cc(O)c2c1O[C@H](c1ccc(O)c(O)c1)[C@H](O)[C@H]2c1c(O)cc(O)c2c1O[C@H](c1ccc(O)c(O)c1)[C@H](O)C2 [Compound 13, PC C1, reference compound] : 3.11

Measured pEC50 of "Oc1ccc(C(c2c(O)cc(O)c3c2O[C@H](c2ccc(O)c(O)c2)[C@@H](O)C3)c2c(O)cc(O)c3c2O[C@H](c2ccc(O)c(O)c2)[C@@H](O)C3)cc1O" : 2.89

Measured pEC50 of "Oc1ccc([C@H]2Oc3c(c(O)cc(O)c3C(c3cc(O)c(O)c(O)c3)c3c(O)cc(O)c4c3O[C@H](c3ccc(O)c(O)c3)[C@@H](O)C4)C[C@@H]2O)cc1O" : 2.85

Measured pEC50 of Oc1ccc(C(c2c(O)cc(O)c3c2O[C@H](c2ccc(O)c(O)c2)[C@H](O)C3)c2c(O)cc(O)c3c2O[C@H](c2ccc(O)c(O)c2)[C@H](O)C3)cc1O [Compound 8, Epicatechin–catecholmethine–epicatechin] : 2.82

###

- measurementProtocol: Octanol–water partition, shake-flask method
- Assay type: physicochemical
- assayConditions: 200 μM, n-octanol/water, 2 h mixing; SE in parentheses
Some compounds, each annotated with its measured KOW.

Example compounds with recorded KOW:
>>> result("Oc1cc(O)c2c(c1)O[C@H](c1ccc(O)c(O)c1)[C@@H](O)[C@@H]2c1c(O)cc(O)c2c1O[C@H](c1ccc(O)c(O)c1)[C@@H](O)C2 [Compound 11, PC B3, reference compound]")
"0.16 (0.00)"
>>> result("Oc1cc(O)c2c(c1)O[C@H](c1ccc(O)c(O)c1)[C@H](O)[C@H]2c1c(O)cc(O)c2c1O[C@H](c1ccc(O)c(O)c1)[C@H](O)C2 [Compound 12, PC B2, reference compound]")
"0.13 (0.00)"
>>> result("Oc1ccc([C@H]2Oc3c(Cc4c(O)cc(O)c5c4O[C@H](c4ccc(O)c(O)c4)[C@H](O)C5)c(O)cc(O)c3C[C@H]2O)cc1O [Compound 2, Epicatechin–methylene–epicatechin]")
"1.46 (0.01)"
>>> result("O=C(O)C(c1c(O)cc(O)c2c1O[C@H](c1ccc(O)c(O)c1)[C@H](O)C2)c1c(O)cc(O)c2c1O[C@H](c1ccc(O)c(O)c1)[C@H](O)C2 [Compound 4, Epicatechin–carboxymethine–epicatechin]")
"0.02 (0.00)"
>>> result("O=C(O)C(c1c(O)cc(O)c2c1O[C@H](c1ccc(O)c(O)c1)[C@@H](O)C2)c1c(O)cc(O)c2c1O[C@H](c1ccc(O)c(O)c1)[C@@H](O)C2")
"0.04 (0.00)"

Kindly review the next compound as well.
Measured KOW of "Oc1ccc([C@H]2Oc3c(Cc4c(O)cc(O)c5c4O[C@H](c4ccc(O)c(O)c4)[C@@H](O)C5)c(O)cc(O)c3C[C@@H]2O)cc1O" : 5.00 (0.05)

###

- measurementProtocol: Octanol–water partition, shake-flask method
- Format: physicochemical
- assayConditions: 200 μM, n-octanol/water, 2 h mixing; SE in parentheses
assayReadout: KOW

Example compounds with recorded KOW:
>>> result("Oc1cc(O)c2c(c1)O[C@H](c1ccc(O)c(O)c1)[C@@H](O)C2 [Compound 15, catechin, reference compound]")
"2.61 (0.03)"
>>> result("O=C(O[C@@H]1Cc2c(O)cc(O)cc2O[C@@H]1c1cc(O)c(O)c(O)c1)c1cc(O)c(O)c(O)c1 [Compound 14, Epigallocatechin-3-gallate, reference compound]")
"13.58 (0.06)"
>>> result("Oc1ccc([C@H]2Oc3c(c(O)cc(O)c3C(c3ccco3)c3c(O)cc(O)c4c3O[C@H](c3ccc(O)c(O)c3)[C@@H](O)C4)C[C@@H]2O)cc1O")
"5.28 (0.02)"

Kindly review the next compound as well.
Measured KOW of Oc1ccc(C(c2c(O)cc(O)c3c2O[C@H](c2ccc(O)c(O)c2)[C@H](O)C3)c2c(O)cc(O)c3c2O[C@H](c2ccc(O)c(O)c2)[C@H](O)C3)cc1O [Compound 8, Epicatechin–catecholmethine–epicatechin] : 0.34 (0.00)

###

- testTarget: bovine serum albumin (BSA) (Bos taurus)
- Construct: purchased Sigma-Aldrich (MO, USA)
- measurementProtocol: Protein precipitation capacity (PPC), turbidimetric well-plate reader assay with BSA, log-normal dose–response model
- Assay type: biochemical
- assayConditions: BSA 0.1 mM; SE in parentheses
assayReadout: ED90 (mM)

>>> result("Oc1ccc(C(c2c(O)cc(O)c3c2O[C@H](c2ccc(O)c(O)c2)[C@@H](O)C3)c2c(O)cc(O)c3c2O[C@H](c2ccc(O)c(O)c2)[C@@H](O)C3)cc1O")
"2.53 (0.07) mM"

Kindly review the next compound as well.
Measured ED90 (mM) of Oc1ccc(C(c2c(O)cc(O)c3c2O[C@H](c2ccc(O)c(O)c2)[C@H](O)C3)c2c(O)cc(O)c3c2O[C@H](c2ccc(O)c(O)c2)[C@H](O)C3)cc1O [Compound 8, Epicatechin–catecholmethine–epicatechin] : 2.61 (0.06) mM

###

- measurementProtocol: Octanol–water partition, shake-flask method
- Type: physicochemical
- assayConditions: 200 μM, n-octanol/water, 2 h mixing; SE in parentheses; read-out: log P (log10KOW)
Some compounds, each annotated with its measured logP at 2 h.

Example compounds with recorded logP at 2 h:
>>> result("Oc1ccc(C(c2c(O)cc(O)c3c2O[C@H](c2ccc(O)c(O)c2)[C@@H](O)C3)c2c(O)cc(O)c3c2O[C@H](c2ccc(O)c(O)c2)[C@@H](O)C3)cc1O [Compound 7, Catechin–catecholmethine–catechin]")
-0.1
>>> result("Oc1cc(O)c2c(c1)O[C@H](c1ccc(O)c(O)c1)[C@@H](O)[C@@H]2c1c(O)cc(O)c2c1O[C@H](c1ccc(O)c(O)c1)[C@@H](O)C2 [Compound 11, PC B3, reference compound]")
-0.79
>>> result("Oc1cc(O)c2c(c1)O[C@H](c1ccc(O)c(O)c1)[C@H](O)[C@H]2c1c(O)cc(O)c2c1O[C@H](c1ccc(O)c(O)c1)[C@H](O)C2 [Compound 12, PC B2, reference compound]")
-0.87
>>> result("Oc1ccc(C(c2c(O)cc(O)c3c2O[C@H](c2ccc(O)c(O)c2)[C@H](O)C3)c2c(O)cc(O)c3c2O[C@H](c2ccc(O)c(O)c2)[C@H](O)C3)cc1O [Compound 8, Epicatechin–catecholmethine–epicatechin]")
-0.47
>>> result("Oc1ccc([C@H]2Oc3c(c(O)cc(O)c3C(c3ccco3)c3c(O)cc(O)c4c3O[C@H](c3ccc(O)c(O)c3)[C@@H](O)C4)C[C@@H]2O)cc1O [Compound 5, Catechin–furanmethine–catechin]")
0.72

Measured logP at 2 h of Oc1ccc([C@H]2Oc3c(c(O)cc(O)c3C(c3ccco3)c3c(O)cc(O)c4c3O[C@H](c3ccc(O)c(O)c3)[C@H](O)C4)C[C@H]2O)cc1O [Compound 6, Epicatechin–furanmethine–epicatechin] : 0.32

Measured logP at 2 h of O=C(O)C(c1c(O)cc(O)c2c1O[C@H](c1ccc(O)c(O)c1)[C@H](O)C2)c1c(O)cc(O)c2c1O[C@H](c1ccc(O)c(O)c1)[C@H](O)C2 [Compound 4, Epicatechin–carboxymethine–epicatechin] : -1.78
